src = paper PMC10397247

Biological target: T1, 4H2617-AA
T1 chain: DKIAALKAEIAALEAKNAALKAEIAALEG
Test: two-hybrid library CCmax;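 also: natural log of median RNA to DNA barcode read ratio; higher means stronger binding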
Details: mean of both orientations
quantity-kind: interaction score

# binder, interaction score
data = [
    ("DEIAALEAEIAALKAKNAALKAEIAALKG [4H122-AA]", 1.96),
    ("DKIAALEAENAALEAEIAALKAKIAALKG [4H2190-AA]", 0.788),
    ("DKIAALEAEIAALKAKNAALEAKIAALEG [4H2165-AA]", 0.892),
]

Data request: State its interaction score: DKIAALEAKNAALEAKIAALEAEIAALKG [4H2466-AA]
Data returned: -1.65

Data request: Give interaction score for the following binder: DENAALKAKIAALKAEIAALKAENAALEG [4H1867-AA]
Data returned: -1.4

Data request: Give the reported interaction score for this binder. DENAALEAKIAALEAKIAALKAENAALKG [4H1324-AA]
Data returned: -0.287

Data request: Consider the binder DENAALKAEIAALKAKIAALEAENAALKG [4H1636-AA] . State its measured interaction score.
Data returned: -1.46
